Test system: SW-620 colon
Test: NCI tumour cell line growth inhibition, 48 h
Reported TGI values follow for various molecules

### Prompt Please look up its TGI: CC(=O)OC(C(=O)[O][Sn]([CH3])([CH3])[CH3])c1ccccc1 (configuration not stated)
### Response > 100 µM

### Prompt Please look up its TGI: NC(=O)CSc1c2cc(O)ccc2nc2ccc(O)cc12
### Response > 10 µM

### Prompt Please look up its TGI: CC(=O)c1ccc(NC(=O)C(=O)C(C(=O)/C=C/c2ccccc2)C2OC(=O)c3ccccc32)cc1 (configuration not stated)
### Response > 100 µM

### Prompt Please look up its TGI: COc1cc(-c2ccc(N=Nc3ccc4c(S(=O)(=O)O)cc(S(=O)(=O)O)c(N)c4c3O)c(OC)c2)ccc1N=Nc1ccc2c(S(=O)(=O)O)cc(S(=O)(=O)O)c(N)c2c1O
### Response > 100 µM

### Prompt Please look up its TGI: N=c1oc2ccccc2cc1-c1nc2ccccc2[nH]1
### Response > 100 µM

### Prompt Please look up its TGI: Cc1nc2ccc(S(=O)(=O)NS(=O)(=O)c3ccc(-c4ccccc4)cc3)cc2c(=O)n1NS(=O)(=O)c1ccc(-c2ccccc2)cc1
### Response > 100 µM

### Prompt Please look up its TGI: Nc1ccc(-c2nc3ccc(F)cc3s2)cc1Cl
### Response > 100 µM

### Prompt Please look up its TGI: COC(=O)c1cc(=O)nc2cc3cccccc3n12
### Response > 100 µM

### Prompt Please look up its TGI: CCOC(=O)/C=C/c1c(C)[nH]c(=O)[nH]c1=O
### Response > 250 µM

###

Tested on: MDA-MB-231 breast
Test: NCI tumour cell line growth inhibition, 48 h
property-label: log10 of TGI (log10 of the value in µM)
Recorded TGI (log10, µM)

Some compounds with known log10 of TGI results, for comparison:
smiles-notation | tested-target | property-label | value-measured
COc1ccc(-c2cnnn2-c2nonc2-n2cccc2)cc1OC | MDA-MB-231 breast | log10 of TGI | 1.84
O=C(O)c1nc2ccc(C(F)(F)F)cc2nc1Nc1ccc(Cl)c(Cl)c1 | MDA-MB-231 breast | log10 of TGI | 1.43
Nc1nc(N)c2cc(Sc3ccc4ccccc4c3)ccc2n1 | MDA-MB-231 breast | log10 of TGI | 0.72

### Prompt Please look up its log10 of TGI: N=c1ccc2nc3ccc(N)cc3sc-2c1
### Response 1.31

### Prompt Please look up its log10 of TGI: CCCN(CCC)c1ccc(C=O)c(Cl)c1
### Response 1.64

###

Reported GI50 values follow for various compounds
System: ACHN renal
Assay: NCI tumour cell line growth inhibition, 48 h

Some compounds with known GI50 results, for comparison:
compound | value-measured
CCCC1(CN2c3ccccc3Sc3ccc(Cl)cc32)CCN(CC)C1 (stereo not drawn) | 1.76 µM
O=C(Nc1cccc2[nH]c(C(F)(F)F)nc12)c1cc(Cl)ccc1Cl | 2.88 µM
CC(=O)/C=C/c1ccc(Nc2c3ccccc3nc3occ(Cl)c23)cc1 | 3.32 µM
COc1ccc(-c2cnnn2-c2nonc2-n2cccc2)cc1OC | 7.8 µM
CC(C)(C)NCC(O)COc1c(Br)c(Br)c(Br)c2c1OC(C)(C)C2 (stereo not drawn) | 1.9 µM
O=C(c1ccc2ccccc2c1)c1nc2cc(F)ccc2[n+]([O-])c1C(F)(F)F | 22.5 µM

### Prompt Please look up its GI50: O=C(NN1C(=O)CSC1c1cccc(Cl)c1)C(O)c1ccccc1 (stereo not drawn)
### Response 67.4 µM

### Prompt Please look up its GI50: CCCN(CCC)c1ccc(C=O)c(Cl)c1
### Response 31.7 µM

### Prompt Please look up its GI50: COc1ccc(Nc2nc(Nc3cc(C)[nH]n3)c3cc(OC)c(OC)cc3n2)cc1
### Response 1.45 µM

### Prompt Please look up its GI50: COc1ccc(C(=O)c2sc3nc(-c4ccccc4OC)ccc3c2N)cc1OC
### Response 7.24 µM

### Prompt Please look up its GI50: N=c1ccc2nc3ccc(N)cc3sc-2c1
### Response 8.55 µM

### Prompt Please look up its GI50: O=C1c2cccnc2-c2nc(-c3cccnc3)cc3c2c1nc1ccccc13
### Response 1.55 µM

### Prompt Please look up its GI50: COc1cc(OCc2cccc(-c3ccccc3)c2C)cc(OC)c1CN1CCCCC1C(=O)NCCOCCOCCN (stereo not drawn)
### Response 3.43 µM
